hERG current change (%, negative = inhibition) at 1uM reference
molecular target: human ether-à-go-go-related gene (hERG) potassium channel (human); test: primary screen, population patch clamp on CHO cells stably expressing hERG; higher = less effect of the substance
Among all 310,000 compounds or so, about 2,200 (0.71%) showed an effect of 50% or more. Effects have a minus sign here. The full list was thinned out, with strong results kept by preference.
Give a bare numeral; the unit % is implied.

What value of hERG current change (%, negative = inhibition) at 1uM on human ether-à-go-go-related gene (hERG) potassium channel (human) does CC(C)(C)C(=O)Nc1ccc2oc(-c3cc(F)c(F)cc3Cl)nc2c1 have?
15.8

Missing value: hERG current change (%, negative = inhibition) at 1uM, human ether-à-go-go-related gene (hERG) potassium channel (human), entry CCOC(=O)C1(CC2CCCCO2)CCN(Cc2ccc(OC)cc2F)CC1 (stereo not drawn) . Fill in?
-19.8

Find hERG current change (%, negative = inhibition) at 1uM (human ether-à-go-go-related gene (hERG) potassium channel (human)) for the entry CN1CCN(C(=O)c2ccc3c(Cl)c4c(nc3c2)CCCC4)CC1
-0.735

# query: hERG current change (%, negative = inhibition) at 1uM | item CCOC(=O)C1(CC2CC2)CCN(Cc2cnc(-c3ccc(OC)cc3)nc2)CC1 | system: human ether-à-go-go-related gene (hERG) potassium channel (human)
11.7

Provide value of hERG current change (%, negative = inhibition) at 1uM for this record tested with human ether-à-go-go-related gene (hERG) potassium channel (human): C/C(=N\O)C(=O)NCCN(C)C
13.6

Which measured hERG current change (%, negative = inhibition) at 1uM belongs to N#Cc1c(N2CCCC(O)C2)nc(N)c2c(N)nc3c(c12)CC(=O)N3C12CC3CC(CC(C3)C1)C2 (stereo not drawn) , tested on human ether-à-go-go-related gene (hERG) potassium channel (human)?
8.76

For human ether-à-go-go-related gene (hERG) potassium channel (human), provide hERG current change (%, negative = inhibition) at 1uM of COc1ccc(CN2CCN(Cc3ccc(C)cc3)C(CCO)C2)cc1OC (stereo not drawn) please.
-13.3

Missing value: hERG current change (%, negative = inhibition) at 1uM, human ether-à-go-go-related gene (hERG) potassium channel (human), entry COc1ccccc1C(=O)Nc1ccnn1C1CCN(C/C=C/c2ccccc2)CC1 . Fill in?
-85.6

Param readout= hERG current change (%, negative = inhibition) at 1uM; system= human ether-à-go-go-related gene (hERG) potassium channel (human); entry= CCOC(=O)C1(CC2CC2)CCN(Cc2cn[nH]c2-c2ccccc2)CC1 ; returns value.
-65.5

Request: hERG current change (%, negative = inhibition) at 1uM, test system human ether-à-go-go-related gene (hERG) potassium channel (human), entry CNC(=O)C1CCN(S(=O)(=O)c2c(C)noc2/C=C/c2ccc(C)cc2)CC1
10.2

Which hERG current change (%, negative = inhibition) at 1uM is reported with human ether-à-go-go-related gene (hERG) potassium channel (human) for this entry: COc1ccccc1C(=O)Nc1ccnn1C1CCN(C/C=C/c2ccc(F)cc2)CC1 ?
-86.9

Param readout = hERG current change (%, negative = inhibition) at 1uM; param system = human ether-à-go-go-related gene (hERG) potassium channel (human); param query = COc1ccc(Nc2nc(C)nc3c2nnn3Cc2ccccc2)cc1OC ; response: value
4.84

* * *

target: human ether-à-go-go-related gene (hERG) potassium channel (human); assay: primary screen, population patch clamp on CHO cells stably expressing hERG; higher = less effect of the substance
Among all 310,000 compounds or so, about 2,200 (0.71%) showed an effect of 50% or more. The effect is printed as a negative number. This is one part of a sample in which strong results are shown more often than they occur.
PROPERTY NAME: hERG current change (%, negative = inhibition) at 1uM
// return the numeric value with its unit appended

• Cc1cccc(CSc2nnc(-c3ccccn3)n2N)c1 = 9.76%
• CCCCCCCN1C2=NCCCN2c2ccccc21.Cl = -21.6%
• O=C(CN1CCN(c2ccc(Cl)cc2)CC1)c1ccc2c(c1)OCO2 = 1.86%

Sample Cc1nc2scc(-c3ccco3)c2c(=O)n1/N=C/N(C)C — what was its hERG current change (%, negative = inhibition) at 1uM?
5.8%

Given COc1ccc(CCN(C)Cc2ccc(F)cc2F)cc1OC , state its recorded hERG current change (%, negative = inhibition) at 1uM.
-2.08%

For the compound CC(C)=CCCC(C)CN1CCC(n2nccc2NC(=O)c2ccccc2)CC1 (stereo not drawn) , what hERG current change (%, negative = inhibition) at 1uM is on record?
-52.2%

Please give the measured hERG current change (%, negative = inhibition) at 1uM for this compound: COc1ccc(CCN(C)CC(O)COc2ccc(C(C)=O)cc2OC)cc1OC (stereo not drawn)
8.67%

* * *

target: human ether-à-go-go-related gene (hERG) potassium channel (human); test: primary screen, population patch clamp on CHO cells stably expressing hERG; higher = less effect of the substance
Among all 310,000 compounds or so, about 2,200 (0.71%) showed an effect of 50% or more. Effects have a minus sign here. Only a selection was taken, and strong results are over-represented in it overall.
In this section, each of the compounds is paired with its reported hERG current change (%, negative = inhibition) at 1uM.
Write the number in % without appending the unit.

In the examples that follow, each entry is paired with its recorded hERG current change (%, negative = inhibition) at 1uM.
- COc1ccc(C2C(C(=O)Nc3ccccc3OC)=C(C)Nc3nnnn32)c(OC)c1 (centres unmarked): 7.88
- O=C(CSc1ncccn1)N1CCN(C(c2ccccc2)c2ccccc2)CC1: 4.43
- O=c1c2c(-c3cccs3)csc2ncn1-c1ccc(Br)cc1: -2.84
- Cc1cccc2cc(CN(Cc3ccc(F)cc3)C(=O)N3CCOCC3)c(=O)[nH]c12: 1.19

Here is the next item to consider.
Given O=C(CN1C(=O)/C(=C\c2ccccc2Cl)Oc2ccccc21)NCc1cccnc1 , state its recorded hERG current change (%, negative = inhibition) at 1uM.
5.85

* * *

target: human ether-à-go-go-related gene (hERG) potassium channel (human, UniProt Q12809); experiment: primary screen, population patch clamp on CHO cells stably expressing hERG; higher = less effect of the substance
Sequence (Q12809 whole entry, looked up): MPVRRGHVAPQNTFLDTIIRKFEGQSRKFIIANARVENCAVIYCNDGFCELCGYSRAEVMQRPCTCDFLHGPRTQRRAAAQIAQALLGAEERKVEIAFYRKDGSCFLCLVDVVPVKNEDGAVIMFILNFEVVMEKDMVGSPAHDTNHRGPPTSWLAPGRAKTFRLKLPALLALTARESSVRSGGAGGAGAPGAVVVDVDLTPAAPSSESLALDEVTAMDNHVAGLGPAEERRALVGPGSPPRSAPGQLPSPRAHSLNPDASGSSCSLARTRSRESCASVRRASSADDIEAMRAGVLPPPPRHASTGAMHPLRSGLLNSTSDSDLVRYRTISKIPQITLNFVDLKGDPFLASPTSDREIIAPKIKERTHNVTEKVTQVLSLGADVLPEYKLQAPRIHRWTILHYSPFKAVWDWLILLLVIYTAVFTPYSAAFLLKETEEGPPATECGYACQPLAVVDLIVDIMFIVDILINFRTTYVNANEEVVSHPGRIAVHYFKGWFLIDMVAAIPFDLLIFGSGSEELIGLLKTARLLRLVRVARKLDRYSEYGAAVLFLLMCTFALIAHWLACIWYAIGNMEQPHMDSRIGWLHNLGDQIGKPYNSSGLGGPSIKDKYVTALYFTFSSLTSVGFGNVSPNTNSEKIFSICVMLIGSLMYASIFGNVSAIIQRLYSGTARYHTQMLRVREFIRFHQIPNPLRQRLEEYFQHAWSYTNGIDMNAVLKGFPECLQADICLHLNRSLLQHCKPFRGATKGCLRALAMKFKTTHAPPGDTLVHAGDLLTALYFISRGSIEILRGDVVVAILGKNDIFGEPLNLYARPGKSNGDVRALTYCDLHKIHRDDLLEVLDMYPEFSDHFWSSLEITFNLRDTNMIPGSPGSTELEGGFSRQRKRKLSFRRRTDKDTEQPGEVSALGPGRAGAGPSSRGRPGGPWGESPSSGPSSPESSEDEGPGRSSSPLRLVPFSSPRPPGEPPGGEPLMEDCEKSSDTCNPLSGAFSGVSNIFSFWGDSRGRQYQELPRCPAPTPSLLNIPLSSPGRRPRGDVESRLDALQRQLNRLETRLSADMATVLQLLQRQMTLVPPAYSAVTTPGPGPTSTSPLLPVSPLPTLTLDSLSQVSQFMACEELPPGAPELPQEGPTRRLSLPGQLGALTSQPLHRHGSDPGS
The campaign covered roughly 310,000 compounds. About 2,200 (0.71%) showed an effect of 50% or more. Effects have a minus sign here. This is one part of a sample in which strong results are shown more often than they occur.
hERG current change (%, negative = inhibition) at 1uM listing for selected molecules.
Numeric answer only, unit % assumed.

Here is how some molecules turned out for hERG current change (%, negative = inhibition) at 1uM.
• O=[N+]([O-])c1ccc2c(c1)OCCOCCOCCOCCOCCOCCO2 = -32.5
• c1cncc(-c2nc(-c3ccc4c(c3)OCCO4)cs2)c1 = 9.93
• c1ccn2cc(-c3ccc4c(c3)OCCO4)nc2c1 = 4.22
• Cc1ccc2nc(-c3ccc4c(c3)OCCO4)cn2c1 = 15.7

Name the reported hERG current change (%, negative = inhibition) at 1uM value associated with the molecule N#Cc1ncc(-c2ccc3c(c2)OCCOCCOCCOCCOCCO3)nc1C#N
-84.8

Reported hERG current change (%, negative = inhibition) at 1uM for CCCc1[nH]n(-c2ccc(F)cc2)c(=O)c1C=Nc1cccc(F)c1 : what is it?
16.9

Consider the molecule shown here: COc1ccccc1-c1ccc(=O)n(CC(=O)NCc2cccs2)n1 What is its recorded hERG current change (%, negative = inhibition) at 1uM?
15.8

* * *

target: human ether-à-go-go-related gene (hERG) potassium channel (human); experiment: primary screen, population patch clamp on CHO cells stably expressing hERG; higher = less effect of the substance
Hit rate of the full screen: of about 310,000 compounds, about 2,200 (0.71%) showed an effect of 50% or more. The effect is printed as a negative number. The full list was thinned out, with strong results kept by preference.
PROPERTY NAME: hERG current change (%, negative = inhibition) at 1uM (%)
Could you give me the number in %? Just the number is fine.

- Cc1[nH]n(-c2ccc([N+](=O)[O-])cc2)c(=O)c1C=NCCN1CCN(C(=O)c2ccccc2)CC1: -77
- Cc1c(C(=O)c2ccccc2)c(=O)n(C)c(=O)n1C: 9.65
- COc1ccc(C(CCN2CCCC2)c2c(O)cc(OC)cc2OC)cc1 (centres unmarked): -21.1
- COc1ccc(N(C(=O)/C=C/c2ccccc2)C2=CC3CCC(C2)N3C)cc1.Cl (centres unmarked): -70.3
- CCN(CC)CCC(c1ccc(OC)cc1)c1c(O)cc(OC)cc1OC (centres unmarked): -25.8

Need hERG current change (%, negative = inhibition) at 1uM of COc1ccc(C(=O)CN(C(=O)c2ccc(Cl)cc2)N2C(=O)C3CCCCC3C2=O)cc1 (centres unmarked) , thanks.
10.8

Request the reported hERG current change (%, negative = inhibition) at 1uM associated with COc1ccc(N(C(=O)/C=C/c2ccc(OC)c(OC)c2)C2=CC3CCC(C2)N3C)cc1.Cl (centres unmarked)
-42.8

Endpoint output: hERG current change (%, negative = inhibition) at 1uM of COc1cc(O)c(C(CCN2CCCC(C)C2)c2ccc(N(C)C)cc2)c(OC)c1 (centres unmarked) . Value?
-9.72

// query hERG current change (%, negative = inhibition) at 1uM value for entry COc1ccc(N(C(=O)c2ccc(Cl)cc2)C2=CC3CCC(C2)N3C)cc1.Cl (centres unmarked)
-76.1

Could you share which hERG current change (%, negative = inhibition) at 1uM value was measured for COc1cc(O)c(C(CCN2CCCCC2)c2ccc(N(C)C)cc2)c(OC)c1 (centres unmarked) ?
10.3

// data source = paper PMC4336329
